- Test system: Mycobacterium tuberculosis
- test details: Antimycobacterial activity against Mycobacterium tuberculosis H37Ra by microplate alamar blue assay
- Type: functional
parameter: MIC (µM)
Write it as a number; the unit µM goes unstated.

> print(dat)
                                   compound              assayed.system  number
1  CCCCC/C=C/C(O)C(O)/C=C/c1c(CC(O)C(C)(C)O)ccc(O)c1CO (stereo not drawn)  Mycobacterium tuberculosis     245

Identify the measured MIC of NNC(=O)c1ccncc1 for Mycobacterium tuberculosis.
0.29

* * *

- System: NCI-H187
- test details: Cytotoxicity against human NCI-H187 cells by colorimetric method
- Type: functional, cell-based
Recorded pIC50 for the following molecules
Conceptually, pIC50 converts a concentration in mol/L into minus its log10.

Identify the measured pIC50 of Cc1c2ccncc2c(C)c2c1[nH]c1ccccc12 for NCI-H187.
5.80

Identify the measured pIC50 of C/C=C(\C)C(=O)C(C)C(O)C(C)C(=O)O[C@H]1C=COC=C2C[C@@]3(SC)C(=O)N4[C@H]5C(=CC=C[C@@H]5O)[C@@H](O)[C@@]4(SC)C(=O)N3[C@@H]21 (some centres undefined) for NCI-H187.
4.64

* * *

- System: Mycobacterium tuberculosis
- test details: Antimycobacterial activity against Mycobacterium tuberculosis H37Ra by microplate alamar blue assay
- Format: functional
Structures can show the parent of a compound that is named as a salt.
Note to self: use Y only for MIC readings below 200 µM; a reading exactly at 200 µM still gets N.

molecule	cat
CC(O)CCC/C=C/C(O)C(O)/C=C/c1c(CC(O)C(C)(C)O)ccc(O)c1C=O (configuration not stated)	N
C/C=C/C(C=O)=C\C=C\C(O)C(O)[C@@H]1O[C@H]1CO (relative stereo)	N

Is it true that MIC reported for O=C1c2c(O)cccc2[C@H](O)[C@H](O)[C@H]1O is less than 200 µM?
N

Is it true that MIC reported for CS[C@@]12CC3=CC=C[C@H](O)[C@H]3N1C(=O)[C@]1(SC)CC3=COC=C[C@H](O)[C@H]3N1C2=O is less than 200 µM?
Y

Is it true that MIC reported for C/C=C(\C)C(=O)C(C)C(O)C(C)C(=O)O[C@H]1C=COC=C2C[C@@]3(SC)C(=O)N4[C@H]5C(=CC=C[C@@H]5O)[C@@H](O)[C@@]4(SC)C(=O)N3[C@@H]21 (some centres not stated) is less than 200 µM?
Y

Is it true that MIC reported for C/C=C(\C)C(=O)C(C)C(O)C(C)C(=O)O[C@H]1C=COC=C2C[C@@]3(SC)C(=O)N4c5c(O)cccc5[C@@H](O)[C@@]4(SC)C(=O)N3[C@@H]21 (some centres not stated) is less than 200 µM?
Y

Is it true that MIC reported for NC[C@H]1O[C@H](O[C@H]2[C@H](O)[C@@H](O[C@H]3O[C@H](CO)[C@@H](O)[C@H](N)[C@H]3O)[C@H](N)C[C@@H]2N)[C@H](O)[C@@H](O)[C@@H]1O [KANAMYCIN SULFATE] is less than 200 µM?
Y

* * *

Recorded IC50 for the following compounds
- Tested on: NCI-H187
- test details: Cytotoxicity against human NCI-H187 cells by colorimetric method
- Assay type: functional, cell-based
Write it as a number; the unit µM goes unstated.

compound	IC50 / µM
O=C1c2c(O)cccc2[C@H](O)[C@H](O)[C@H]1O	56.6

Here's the next entry for you.
# input compound: C/C=C(\C)C(=O)C(C)C(O)C(C)C(=O)O[C@H]1C=COC=C2C[C@@]3(SC)C(=O)N4c5c(O)cccc5[C@@H](O)[C@@]4(SC)C(=O)N3[C@@H]21 (stereo not given in full) ; wanted: its IC50
20.3
